test system: Streptococcus pneumoniae; assay: Antibacterial activity against efflux-mediated macrolide-resistant Streptococcus pneumoniae Ci137 by broth microdilution method; assay type: functional
OBSERVED_PROPERTY: MIC

[
  {
    "STRUCTURE_NOTATION": "COC(=O)c1cn(C2CC2)c2cc(Cl)c(NCCNC(=O)OC(C)(C)C)cc2c1=O",
    "MIC": "> 64 µg/mL"
  },
  {
    "STRUCTURE_NOTATION": "CC[C@H]1OC(=O)[C@H](C)[C@@H](O[C@H]2C[C@@](C)(OC)[C@@H](OC(=O)CCN(C)CCNc3ccc4c(c3)c(=O)c(C(=O)NCCO)cn4C3CC3)[C@H](C)O2)[C@H](C)[C@@H](O[C@@H]2O[C@H](C)C[C@H](N(C)C)[C@H]2O)[C@](C)(O)C[C@@H](C)CN(C)[C@H](C)[C@@H](O)[C@]1(C)O",
    "MIC": "1 µg/mL"
  },
  {
    "STRUCTURE_NOTATION": "NCCNc1cc2c(=O)c(C(=O)NCCO)cn(C3CC3)c2cc1Cl",
    "MIC": "> 64 µg/mL"
  }
]

Notebook: pull reported MIC for Streptococcus pneumoniae, entry NCCNc1cc2c(cc1F)c(=O)c(C(=O)NCCO)cn2C1CC1
> 64 µg/mL

All values here come from ChEMBL document CHEMBL1921709.
